# experimental-protocol: Stability in human HeLa cell homogenate assessed as half life by LC-MS/MS analysis
# Assay type: ADME, cell-based
reported-endpoint: half-life

{"mol": "CC[C@H](C)[C@@H]1NC(=O)[C@H](Cc2ccc(-c3ccccc3)cc2)NC(=O)[C@H](CC(C)C)NC(=O)[C@@H]2[C@H](c3ccccc3)CCN2C(=O)[C@@H](NC(=O)[C@H](CCCNC(=N)N)NC(=O)[C@H](CCCNC(=N)N)NC(=O)[C@H](CCCCN=[N+]=[N-])NC(C)=O)CSSC[C@@H](C(=O)N[C@@H](CCCNC(=N)N)C(=O)N[C@@H](CCCNC(=N)N)C(N)=O)NC(=O)[C@H](C(C)C)NC(=O)[C@@H]2CCCN2C(=O)[C@H](CC(=O)O)NC(=O)[C@H](Cc2ccc(O)cc2)NC(=O)[C@H](CO)NC1=O", "data-value": "> 372 min"}
{"mol": "CC[C@H](C)[C@@H]1NC(=O)[C@H](Cc2ccc(O)cc2)NC(=O)[C@H](CC(C)C)NC(=O)[C@@H]2CCCN2C(=O)[C@@H](NC(=O)[C@H](CCCNC(=N)N)NC(=O)[C@H](CCCNC(=N)N)NC(C)=O)CSSC[C@@H](C(=O)N[C@@H](CCCNC(=N)N)C(=O)N[C@@H](CCCNC(=N)N)C(N)=O)NC(=O)[C@H](C(C)C)NC(=O)[C@@H]2CCCN2C(=O)[C@H](CC(=O)O)NC(=O)[C@H](Cc2cc(F)c(F)c(F)c2)NC(=O)[C@H](CO)NC1=O", "data-value": "18 min"}

* * *

half-life reference
# experimental-protocol: Stability in human HeLa cell homogenate assessed as half life by LC-MS/MS analysis
# Type: ADME, cell-based
Where a SMILES comes first, the peptide text is derived from it. Bridges are numbered along the chain shown (N, C = ends). [ ]: non-standard residue; d: D form. Bip = N[C@@H](Cc1ccc(-c2ccccc2)cc1)C(=O)O; Dip = N[C@H](C(=O)O)C(c1ccccc1)c1ccccc1; hLeu = CC(C)CC[C@H](N)C(=O)O; Dab = NCC[C@H](N)C(=O)O
reported-endpoint: half-life

{"compound": "CC[C@H](C)[C@@H]1NC(=O)[C@H](Cc2ccc(O)cc2)NC(=O)[C@H](CC(C)C)NC(=O)[C@@H]2CCCN2C(=O)[C@@H](NC(=O)[C@H](CCCNC(=N)N)NC(=O)[C@H](CCCNC(=N)N)NC(C)=O)CSSC[C@@H](C(=O)N[C@@H](CCCNC(=N)N)C(=O)N[C@@H](CCCNC(=N)N)C(N)=O)NC(=O)[C@H](C(C)C)NC(=O)[C@@H]2CCCN2C(=O)[C@H](CC(=O)O)NC(=O)[C@H](CC2CCCCC2)NC(=O)[C@H](CO)NC1=O", "data-value": "15 min"}
{"compound": "CC(=O)N[C@@H](CCCNC(=N)N)C(=O)N[C@@H](CCCNC(=N)N)C(=O)N[C@H]1CSSC[C@@H](C(=O)N[C@@H](CCCNC(=N)N)C(=O)N[C@@H](CCCNC(=N)N)C(N)=O)NC(=O)[C@H](C(C)C)NC(=O)[C@@H]2CCCN2C(=O)[C@H](CC(=O)O)NC(=O)[C@H](Cc2ccc(O)cc2)NC(=O)[C@H](CO)NC(=O)[C@H](CCC(C)C)NC(=O)[C@H](Cc2ccc(-c3ccccc3)cc2)NC(=O)[C@H](CC(C)C)NC(=O)[C@@H]2CCCN2C1=O (Ac-RRCPL[Bip][hLeu]SYDPVCRR-NH2; disulfide 3-13)", "data-value": "17 min"}
{"compound": "CC[C@H](C)[C@@H]1NC(=O)[C@H](Cc2ccc(O)cc2)NC(=O)[C@H](CC(C)C)NC(=O)[C@@H]2CCCN2C(=O)[C@@H](NC(=O)[C@H](CCCNC(=N)N)NC(=O)[C@H](CCCNC(=N)N)NC(C)=O)CSSC[C@@H](C(=O)N[C@@H](CCCNC(=N)N)C(=O)N[C@@H](CCCNC(=N)N)C(N)=O)NC(=O)[C@H](C(C)C)NC(=O)[C@@H]2CCCN2C(=O)[C@H](CC(=O)O)NC(=O)[C@H](C(c2ccccc2)c2ccccc2)NC(=O)[C@H](CCN)NC1=O (Ac-RRCPLYI[Dab][Dip]DPVCRR-NH2; disulfide 3-13)", "data-value": "34 min"}

Taken from ChEMBL document CHEMBL5131563.
